Target: HCV1b NS5B polymerase delta 21 (Hepatitis C virus genotype 1b, UniProt P26663)
Construct: purified HCV1b NS5B polymerase delta 21
Sequence (P26663 2420-2989): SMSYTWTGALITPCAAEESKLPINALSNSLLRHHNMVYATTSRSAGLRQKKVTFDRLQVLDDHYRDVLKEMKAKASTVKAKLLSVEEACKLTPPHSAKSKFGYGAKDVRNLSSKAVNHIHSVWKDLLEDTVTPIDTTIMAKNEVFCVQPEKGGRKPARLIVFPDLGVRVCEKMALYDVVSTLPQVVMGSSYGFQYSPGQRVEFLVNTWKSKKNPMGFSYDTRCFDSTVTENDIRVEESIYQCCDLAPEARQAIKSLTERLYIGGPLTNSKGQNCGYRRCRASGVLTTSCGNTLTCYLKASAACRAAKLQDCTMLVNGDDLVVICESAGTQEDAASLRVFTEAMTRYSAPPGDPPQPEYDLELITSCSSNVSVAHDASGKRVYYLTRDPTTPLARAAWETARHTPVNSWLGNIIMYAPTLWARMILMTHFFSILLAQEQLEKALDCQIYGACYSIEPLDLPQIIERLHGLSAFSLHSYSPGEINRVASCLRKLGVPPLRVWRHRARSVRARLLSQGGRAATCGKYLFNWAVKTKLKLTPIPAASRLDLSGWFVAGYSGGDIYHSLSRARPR
Assay: RNA-Dependent RNA HCV NS5B (Polymerase) Assay and IC50 Determination
Format: biochemical
pIC50: −log10 of the molar value.
observedProperty: pIC50

>  <molecule>
CC1CCC(C2=C(c3cc(-c4ccccc4)sc3C(=O)O)CCN(S(C)(=O)=O)C2)CC1 (stereo not shown) [Example 039]

>  <measuredValue>
< 5.00

$$$$

// each molecule listed below needs its pIC50
1. CC1CCC(C2=C(c3cc(-c4ccccc4)sc3C(=O)O)CCN(Cc3nc4nc(C(C)C)cc(C(C)C)n4n3)C2)CC1 (stereo not shown) [Example 151]
2. CCN1CCC(c2cc(C#CCOC)sc2C(=O)O)=C(C2CCC(C)CC2)C1 (stereo not shown) [Example 034]
3. CCN1CCC(c2cc(-c3ccc(NC(=O)c4cc(C)n(C)n4)cc3)sc2C(=O)O)=C(C2CCC(C)CC2)C1 (stereo not shown) [Example 051]
4. CC1CCC(C2=C(c3cc(-c4cc(F)c(NC(=O)c5cscn5)c(F)c4)sc3C(=O)O)CCN(C)C2)CC1 (stereo not shown) [Example 166]

[A]
5.00 to 5.52
> 5.52
> 5.52
> 5.52

// each molecule listed below needs its pIC50
1. CC1CCC(C2=C(c3cc(-c4ccccc4)sc3C(=O)O)CCN(C(=O)c3ccccc3)C2)CC1 (stereo not shown) [Example 072]
2. CC1CCC(C2=C(c3cc(-c4ccccc4)sc3C(=O)O)CCN(C(N)=O)C2)CC1 (stereo not shown) [Example 084]
3. CC1CCC(C2=C(c3cc(-c4ccccc4)sc3C(=O)O)CCN(CCCCc3ccccc3)C2)CC1 (stereo not shown) [Example 080]
4. CCOC(=O)OCOC(=O)c1sc(-c2ccc(NC(=O)c3cscn3)cc2)cc1C1=C(C2CCC(C)CC2)CN(C)CC1 (stereo not shown) [Example 107]
5. CC1CCC(C2=C(c3cc(I)sc3C(=O)O)CCN(C)C2)CC1 (stereo not shown) [Example 002]
6. CC1CCC(C2=C(c3cc(-c4ccccc4)sc3C(=O)O)CCN(Cc3c(Cl)cncc3Cl)C2)CC1 (stereo not shown) [Example 146]
7. CC1CCC(C2=C(c3cc(-c4ccc(-c5nc6cccnc6n5C)cc4)sc3C(=O)O)CCN(C)C2)CC1 (stereo not shown) [Example 139]

[A]
1: < 5.00; 2: > 5.52; 3: < 5.00; 4: > 5.52; 5: < 5.00; 6: < 5.00; 7: < 5.00

###

Biological target: HCV1b NS5B polymerase delta 21 (Hepatitis C virus genotype 1b)
Construct: purified HCV1b NS5B polymerase delta 21
Assay: RNA-Dependent RNA HCV NS5B (Polymerase) Assay and IC50 Determination
Format: biochemical
Give IC50 for every item shown.

Here's what some known entries look like.
>  <compound>
CCOC(=O)OC(C)OC(=O)c1sc(-c2ccc(NC(=O)c3cscn3)cc2)cc1C1=C(C2CCC(C)CC2)CN(C)CC1 (stereo not shown)

>  <testSystem>
HCV1b NS5B polymerase delta 21 (Hepatitis C virus genotype 1b)

>  <measuredValue>
> 10 µM

$$$$
>  <compound>
CCN1CCC(c2cc(-c3ccc(NC(=O)c4cccs4)cc3)sc2C(=O)O)=C(C2CCC(C)CC2)C1 (stereo not shown)

>  <testSystem>
HCV1b NS5B polymerase delta 21 (Hepatitis C virus genotype 1b)

>  <measuredValue>
< 3 µM

$$$$
>  <compound>
CC1CC=C(C2=C(c3cc(-c4ccc(NC(=O)c5nccs5)cc4)sc3C(=O)O)CCN(C)C2)CC1 (stereo not shown)

>  <testSystem>
HCV1b NS5B polymerase delta 21 (Hepatitis C virus genotype 1b)

>  <measuredValue>
< 3 µM

$$$$

[Q] Need IC50 of CCN1CCC(c2cc(-c3ccc(NC(=O)c4nccs4)cc3)sc2C(=O)O)=C(C2CCC(C)CC2)C1 (stereo not shown) , thanks.
[A] < 3 µM
